# System name: human progesterone receptor-A [PRA] isoform (Homo sapiens)
# Construct: host or cells: insect SF21 cells (baculovirus)
# Sequence (P06401 1-769 isoform P06401-2): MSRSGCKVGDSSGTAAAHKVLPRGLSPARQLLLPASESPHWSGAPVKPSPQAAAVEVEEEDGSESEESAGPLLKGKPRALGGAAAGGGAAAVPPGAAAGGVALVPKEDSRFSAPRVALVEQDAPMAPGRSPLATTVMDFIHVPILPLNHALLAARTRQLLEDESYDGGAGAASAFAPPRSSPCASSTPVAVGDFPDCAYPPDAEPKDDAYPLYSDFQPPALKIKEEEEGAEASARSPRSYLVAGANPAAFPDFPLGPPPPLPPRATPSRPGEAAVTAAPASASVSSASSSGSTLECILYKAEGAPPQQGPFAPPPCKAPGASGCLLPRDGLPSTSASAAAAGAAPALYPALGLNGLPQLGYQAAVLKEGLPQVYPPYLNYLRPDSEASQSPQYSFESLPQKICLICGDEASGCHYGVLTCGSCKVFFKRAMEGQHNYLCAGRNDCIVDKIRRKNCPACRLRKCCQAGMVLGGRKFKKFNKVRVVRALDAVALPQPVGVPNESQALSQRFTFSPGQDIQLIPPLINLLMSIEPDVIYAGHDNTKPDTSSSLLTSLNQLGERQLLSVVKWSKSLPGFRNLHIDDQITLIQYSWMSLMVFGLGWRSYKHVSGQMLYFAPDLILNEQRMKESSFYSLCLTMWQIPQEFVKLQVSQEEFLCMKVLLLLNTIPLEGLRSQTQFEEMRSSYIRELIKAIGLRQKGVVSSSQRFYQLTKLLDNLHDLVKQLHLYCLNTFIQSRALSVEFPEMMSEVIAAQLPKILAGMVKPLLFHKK
# Test details: Radioligand binding with human progesterone receptor cytosol ([3H]-progesterone competition)
# Setup conditions: PRA cytosol expressed in insect SF21 cells, [3H]Prog ~0.8 nM, 4° C. overnight; Ki by Cheng-Prusoff, KL ~4.5 nM; read-out: Ki (nM) PR
Measurement label: Ki

# Compound, Measurement label, Reading
data = [
    ("COc1cccc2c1-c1ccc3c(c1C(c1ccccc1)O2)C(C)=CC(C)(C)N3 (single isomer, unassigned) [Example 26]", "Ki", "13400 nM"),
    ("COc1cccc2c1-c1ccc3c(c1C(=CC1=NC(C)(C)CO1)O2)C(C)=CC(C)(C)N3", "Ki", "≥ 10000 nM"),
    ("COC(=O)C1=CC(C2Oc3ccc(O)c(OC)c3-c3ccc4c(c32)C(C)=CC(C)(C)N4)CCC1 (single isomer, unassigned) [Example 415]", "Ki", "3740 nM"),
    ("COc1cccc2c1-c1ccc3c(c1C(=Cc1c(Cl)cccc1Cl)O2)C(C)=CC(C)(C)N3", "Ki", "≥ 10000 nM"),
    ("COc1cccc2c1-c1ccc3c(c1C(C1C=CC(=O)O1)O2)C(C)=CC(C)(C)N3 (centres unmarked)", "Ki", "≥ 10000 nM"),
    ("COc1cccc2c1-c1ccc3c(c1C(c1cccc(F)c1)O2)C(C)=CC(C)(C)N3 (centres unmarked)", "Ki", "≥ 10000 nM"),
    ("COc1cccc2c1-c1ccc3c(c1C(CC(O)CO)O2)C(C)=CC(C)(C)N3 (mixture of isomers)", "Ki", "≥ 10000 nM"),
    ("COc1c(O)ccc2c1-c1ccc3c(c1C(c1cc(F)c(F)c(F)c1)O2)C(C)=CC(C)(C)N3 (centres unmarked)", "Ki", "1470 nM"),
    ("COc1cccc2c1-c1ccc3c(c1C(c1cccc(C(=O)O)c1)O2)C(C)=CC(C)(C)N3 (centres unmarked)", "Ki", "> 10000 nM"),
    ("C=CCC1Oc2cccc(Cl)c2-c2ccc3c(c21)C(C)=CC(C)(C)N3 (centres unmarked)", "Ki", "60.7 nM"),
    ("C=C(CC1Oc2cccc(OC)c2-c2ccc3c(c21)C(C)=CC(C)(C)N3)C(=O)OC (centres unmarked)", "Ki", "≥ 10000 nM"),
]

---

# System name: human glucocorticoid receptor-α [GRX] isoform (Homo sapiens)
# Construct: host or cells: insect SF21 cells (baculovirus)
# Sequence (P04150 whole entry, canonical isoform): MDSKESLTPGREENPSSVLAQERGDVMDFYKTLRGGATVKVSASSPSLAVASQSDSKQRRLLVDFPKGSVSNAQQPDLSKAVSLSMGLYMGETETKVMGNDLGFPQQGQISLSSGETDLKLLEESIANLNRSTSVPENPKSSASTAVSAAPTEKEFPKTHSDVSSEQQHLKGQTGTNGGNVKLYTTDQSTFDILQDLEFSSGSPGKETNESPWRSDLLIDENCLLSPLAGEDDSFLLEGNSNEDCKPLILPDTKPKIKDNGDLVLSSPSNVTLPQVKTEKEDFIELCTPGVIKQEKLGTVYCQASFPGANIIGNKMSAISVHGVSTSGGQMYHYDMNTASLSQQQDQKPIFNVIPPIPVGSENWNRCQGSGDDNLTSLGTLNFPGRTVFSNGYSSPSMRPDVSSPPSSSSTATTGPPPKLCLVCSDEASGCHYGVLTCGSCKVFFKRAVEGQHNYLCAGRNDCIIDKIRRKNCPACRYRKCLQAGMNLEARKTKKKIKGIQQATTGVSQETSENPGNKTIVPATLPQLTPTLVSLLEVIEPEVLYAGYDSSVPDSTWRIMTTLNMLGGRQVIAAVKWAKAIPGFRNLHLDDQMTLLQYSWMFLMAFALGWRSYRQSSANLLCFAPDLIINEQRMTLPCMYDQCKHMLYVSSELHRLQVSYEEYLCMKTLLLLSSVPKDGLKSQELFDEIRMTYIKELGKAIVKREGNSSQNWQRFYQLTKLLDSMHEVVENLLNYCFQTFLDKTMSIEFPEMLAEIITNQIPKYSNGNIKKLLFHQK
# Test details: Radioligand binding with human glucocorticoid receptor cytosol ([3H]-dexamethasone competition)
# Setup conditions: GRX cytosol expressed in insect SF21 cells, [3H]-Dex ~0.9 nM, 4° C. overnight; Ki by Cheng-Prusoff, KL ~[…]; read-out: Ki (nM) GR
Mark each entry true (1) if its Ki sits below 2 nM, and false (0) for all others.

# Molecule, Label value
measured = [
    ("COc1cccc2c1-c1ccc3c(c1CO2)C(C)=CC(C)(C)N3", "false (0)"),
    ("COc1cccc2c1-c1ccc3c(c1C(c1cccc(OC(C)=O)c1)O2)C(C)=CC(C)(C)N3 (stereo not drawn)", "false (0)"),
    ("COc1cccc2c1-c1ccc3c(c1C(=Cc1c(Cl)cccc1Cl)O2)C(C)=CC(C)(C)N3", "false (0)"),
    ("C=CCC1Oc2c(C(C)=O)ccc(OC)c2-c2ccc3c(c21)C(C)=CC(C)(C)N3 (stereo not drawn)", "false (0)"),
    ("COc1cccc2c1-c1ccc3c(c1[C@H]([C@H]1C=C(C)CCC1)O2)C(C)=CC(C)(C)N3", "true (1)"),
    ("COc1c(O)ccc2c1-c1ccc3c(c1/C(=C/c1ccccn1)O2)C(C)=CC(C)(C)N3", "true (1)"),
    ("C=CCC1Oc2ccc(OC(=O)CCCC(=O)N3CCOCC3)c(OC)c2-c2ccc3c(c21)C(C)=CC(C)(C)N3 (stereo not drawn)", "true (1)"),
    ("COc1c(O)ccc2c1-c1ccc3c(c1C(C1CCCC1)O2)C(C)=CC(C)(C)N3 (stereo not drawn)", "true (1)"),
    ("COCC1=C[C@H]([C@@H]2Oc3ccc(O)c(OC)c3-c3ccc4c(c32)C(C)=CC(C)(C)N4)CCC1 (relative stereo)", "false (0)"),
    ("C=C=CC1Oc2ccc(O)c(OC)c2-c2ccc3c(c21)C(C)=CC(C)(C)N3 (stereo not drawn)", "true (1)"),
    ("COc1cccc2c1-c1ccc3c(c1C([C@@H]1C=C(CSC)CCC1)O2)C(C)=CC(C)(C)N3 (stereo in doubt)", "false (0)"),
    ("CC1=CC(C)(C)Nc2ccc3c(c21)C(c1cccs1)Oc1ccc(O)c(Cl)c1-3 (stereo not drawn)", "false (0)"),
    ("C/C=C/CC1Oc2cccc(OC)c2-c2ccc3c(c21)C(C)=CC(C)(C)N3 (stereo not drawn) [Example 198]", "true (1)"),
    ("COC(=O)/C=C/C1Oc2cccc(OC)c2-c2ccc3c(c21)C(C)=CC(C)(C)N3 (stereo not drawn)", "false (0)"),
    ("COc1c(O)ccc2c1-c1ccc3c(c1C(c1c(F)c(F)c(F)c(F)c1F)O2)C(C)=CC(C)(C)N3 (racemic)", "false (0)"),
    ("COc1cccc2c1-c1ccc3c(c1C(CC1CO1)O2)C(C)=CC(C)(C)N3 (stereo not drawn)", "false (0)"),
    ("COc1c(O)ccc2c1-c1ccc3c(c1C(c1cccc(O)c1)O2)C(C)=CC(C)(C)N3 (stereo not drawn)", "false (0)"),
    ("C=CCC1Oc2cccc(OC)c2-c2ccc3c(c21)C(C)=CC(C)(C)N3 (single isomer, unassigned; (-)) [Example 36]", "true (1)"),
    ("COc1c(O)ccc2c1-c1ccc3c(c1CO2)C(C)=CC(C)(C)N3", "false (0)"),
    ("COc1c(O)ccc2c1-c1ccc3c(c1[C@H]([C@H]1C=CCCC1)O2)C(C)=CC(C)(C)N3", "true (1)"),
    ("COc1cccc2c1-c1ccc3c(c1C([C@@H]1C=C(COC(C)=O)CCC1)O2)C(C)=CC(C)(C)N3 (stereo in doubt)", "false (0)"),
]

---

# System name: human progesterone receptor-A [PRA] isoform (Homo sapiens)
# Construct: host or cells: insect SF21 cells (baculovirus)
# Test details: Radioligand binding with human progesterone receptor cytosol ([3H]-progesterone competition)
# Setup conditions: PRA cytosol expressed in insect SF21 cells, [3H]Prog ~0.8 nM, 4° C. overnight; Ki by Cheng-Prusoff, KL ~4.5 nM; read-out: Ki (nM) PR
# Ki listing for each entry below
Measurement label: Ki (nM)

# Molecule, Relation, Reading
records = [
    ("COc1c(O)ccc2c1-c1ccc3c(c1C(C1CCCCC1)O2)C(C)=CC(C)(C)N3 (centres unmarked)", "=", 533),
    ("COC(=O)C1=CC(C2Oc3ccc(O)c(OC)c3-c3ccc4c(c32)C(C)=CC(C)(C)N4)CCC1 (single isomer, unassigned) [Example 288]", "=", 4080),
    ("COc1cccc2c1-c1ccc3c(c1C(c1ccc(O)cc1)O2)C(C)=CC(C)(C)N3 (centres unmarked)", "≥", 10000),
    ("COc1cccc2c1-c1ccc3c(c1C(c1cccc(SC)c1)O2)C(C)=CC(C)(C)N3 (centres unmarked)", "≥", 10000),
    ("COc1cccc2c1-c1ccc3c(c1C(C/C=C/COC(=O)N(C)C)O2)C(C)=CC(C)(C)N3 (centres unmarked)", "≥", 10000),
    ("COc1cccc2c1-c1ccc3c(c1C(Cc1ccccc1)O2)C(C)=CC(C)(C)N3 (centres unmarked)", "=", 2910),
    ("C=CCOc1ccc2c(c1OC)-c1ccc3c(c1C(CC=C)O2)C(C)=CC(C)(C)N3 (centres unmarked)", "=", 3740),
    ("COc1cccc2c1-c1ccc3c(c1C(c1cccc(C4=NC(C)(C)CO4)c1)O2)C(C)=CC(C)(C)N3 (centres unmarked)", ">", 10000),
]
